Value source: paper PMC11190929

Items are presented alongside their recorded log10 of Kd.
molecular target: MARK4 (Homo sapiens)
Sequence (Q96L34 59-368): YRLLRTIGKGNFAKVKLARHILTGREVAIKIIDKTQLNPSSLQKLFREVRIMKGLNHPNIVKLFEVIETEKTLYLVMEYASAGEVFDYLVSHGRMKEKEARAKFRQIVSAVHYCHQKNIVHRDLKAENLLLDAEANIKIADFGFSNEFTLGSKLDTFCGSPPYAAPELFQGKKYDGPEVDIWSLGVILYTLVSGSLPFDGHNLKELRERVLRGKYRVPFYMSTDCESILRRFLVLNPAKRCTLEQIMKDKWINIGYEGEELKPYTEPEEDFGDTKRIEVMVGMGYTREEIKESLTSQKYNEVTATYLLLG
In plain terms, each number is the log10 of measured Kd in µM.

Sample answers from the record:
COc1cc(C(=O)N/N=C2\C(=O)Nc3ccc(Cl)cc32)ccc1O ... 0.20
COc1cc(C(=O)N/N=C2\C(=O)Nc3c(Cl)cccc32)ccc1O ... 0.83
COc1cc(C(=O)N/N=C2\C(=O)Nc3ccccc32)ccc1O ... -0.75
COc1cc(C(=O)N/N=C2\C(=O)Nc3cc(F)ccc32)ccc1O ... -0.13

Query: Answer briefly: log10 of Kd recorded on MARK4 (Homo sapiens) for "COc1cc(C(=O)N/N=C2\C(=O)Nc3cc(Cl)c(F)cc32)ccc1O"
Response: 1.10
